FYI, the data here is from patent US20110178104A1.

I'd appreciate it if you could supply UFH (aPTT) EC50 values for the items below.
# Tested on: unfractionated heparin (UFH)
# ASSAY REMARKS: aPTT clotting assay, UFH 0.2 U/mL in plasma (Example 7)
# Assay type: biochemical
# ASSAY SETUP: UFH 0.2 U/mL in plasma
Give the quantity in µg/mL, number only.

Asked: Could you tell me which UFH (aPTT) EC50 is on file for COc1ccc(NC(=O)[C@H](N)CCCNC(=N)N)cc1C(=O)N[C@H](CCCNC(=N)N)C(=O)Nc1ccc(OC)c(C(=O)N[C@H](CCCNC(=N)N)C(=O)Nc2ccc(OC)c(C(=O)N[C@H](CCCNC(=N)N)C(=O)Nc3cccc(C(N)=O)c3)c2)c1 ?
Given back: 1.75

Asked: Also need COc1cc(C(=O)Nc2cc(C(F)(F)F)cc(NC(=O)CCCCNC(=N)N)c2SCCN)c(OC)cc1C(=O)Nc1cc(C(F)(F)F)cc(NC(=O)CCCCNC(=N)N)c1SCCN , thanks.
Given back: 4.30
